Origin of the recorded values: patent US20110190267A1

Assay comment: Pharmacokinetics of meptazinol or meptazinol PABA carbamate, dogs (Example 27)
Type: in vivo, dog
Measurement conditions: dog, plasma, po, 1 mg/kg, meptazinol in plasma, oral meptazinol 1 mg free base equivalents/kg, mean, read-out: AUC
Measure: AUC (ng·h/mL)
Give the quantity in ng·h/mL, number only.

Data request, read-out AUC, for CCC1(c2cccc(O)c2)CCCCN(C)C1 (stereo not shown) [meptazinol] 15.6

* * *

Assay comment: Pharmacokinetics of meptazinol or meptazinol PABA carbamate, rats (Example 30)
Measurement conditions: rat, plasma, iv, 1 mg/kg, t½, meptazinol in plasma; iv meptazinol 1 mg free base equivalents/kg; rats; individual animals
Measure: half-life

Data request, read-out half-life, for CCC1(c2cccc(O)c2)CCCCN(C)C1 (stereo not shown) 48 min

* * *

Assay comment: Pharmacokinetics of meptazinol or meptazinol PABA carbamate, dogs (Example 27)
Format: in vivo, dog
Measurement conditions: dog, plasma, iv, 1 mg/kg, iv meptazinol 1 mg free base equivalents/kg, individual animals
Measure: clearance
Put your answer as a value accompanied by its unit after it.

Data request, read-out clearance, for CCC1(c2cccc(O)c2)CCCCN(C)C1 (stereo not shown) [meptazinol] 67.3 mL/min/kg

* * *

Assay comment: Pharmacokinetics of meptazinol or meptazinol PABA carbamate, rats (Example 30)
Measurement conditions: rat, plasma, iv, 1 mg/kg, AUC, meptazinol in plasma; iv meptazinol 1 mg free base equivalents/kg; rats; mean
Measure: AUC (ng·h/mL)
Give the quantity in ng·h/mL, number only.

Data request, read-out AUC, for CCC1(c2cccc(O)c2)CCCCN(C)C1 (stereo not shown) [meptazinol] 188

* * *

Assay comment: Pharmacokinetics of nalbuphine or nalbuphine PABA carbamate, rats (Example 42)
Assay type: in vivo, Wistar rats
Measurement conditions: male, Wistar, rat, plasma, po, 3 mg nalbuphine free base equivalents/kg, nalbuphine PABA carbamate in plasma after oral p-aminobenzoic acid carbamate prodrug, 3 mg nalbuphine equivs/kg, single animal, read-out: AUC
Measure: AUC (ng·h/mL)
Give the quantity in ng·h/mL, number only.

Data request, read-out AUC, for O=C(Nc1ccc(C(=O)O)cc1)Oc1ccc2c3c1O[C@H]1[C@@H](O)CC[C@@]4(O)[C@@H](C2)N(CC2CCC2)CC[C@]314 [nalbuphine PABA carbamate] 14

* * *

Assay comment: in vivo
Measurement conditions: male, rat, plasma, po, 10 mg naloxone free base equivalents/kg, Tmax, naloxone in plasma after oral naloxone, 10 mg free base equivalents/kg, male rats; single animal
Measure: Tmax (min)
Give the quantity in min, number only.

Data request, read-out Tmax, for `C=CCN1CC[C@]23c4c5ccc(O)c4O[C@H]2C(=O)CC[C@@]3(O)[C@H]1C5` 15

* * *

Assay comment: Pharmacokinetics of dextrorphan or dextrorphan PABA carbamate, monkeys (Example 47)
Assay type: in vivo, cynomolgus monkeys
Measurement conditions: male, cynomolgus monkey, plasma, po, 5 mg dextrorphan free base equivalents/kg, dextrorphan in plasma after oral dextrorphan, 5 mg free base equivalents/kg, male cynomolgus monkeys; single animal; read-out: t½ (converted)
Measure: half-life (h)
Give the quantity in h, number only.

Data request, read-out half-life, for CN1CC[C@@]23CCCC[C@@H]2[C@@H]1Cc1ccc(O)cc13 [dextrorphan] 2.3

* * *

Assay comment: Pharmacokinetics of levorphanol or levorphanol PABA carbamate, dogs (Example 46)
Assay type: in vivo, Beagle dogs
Measurement conditions: female, beagle, dog, plasma, po, 5 mg levorphanol free base equivalents/kg, levorphanol in plasma after oral levorphanol, 5 mg free base equivalents/kg, female beagle dog; maximum of 30% extrapolation allowed; Mean; read-out: t½ (converted)
Measure: half-life

Data request, read-out half-life, for `CN1CC[C@]23CCCC[C@H]2[C@H]1Cc1ccc(O)cc13` 1.2 h

* * *

Assay comment: Pharmacokinetics of meptazinol or meptazinol PABA carbamate, monkeys (Example 29)
Type: in vivo, monkey
Measurement conditions: monkey, plasma, iv, 1 mg/kg, meptazinol in plasma, iv meptazinol 1 mg free base equivalents/kg, individual animals, read-out: C0
Measure: C0 (ng/mL)
Give the quantity in ng/mL, number only.

Data request, read-out C0, for CCC1(c2cccc(O)c2)CCCCN(C)C1 (stereo not shown) 211

* * *

Assay comment: Pharmacokinetics of meptazinol or meptazinol PABA carbamate, rats (Example 30)
Measurement conditions: rat, plasma, iv, 1 mg/kg, CL, iv meptazinol 1 mg free base equivalents/kg; rats; mean
Measure: clearance (mL/min/kg)
Give the quantity in mL/min/kg, number only.

Data request, read-out clearance, for CCC1(c2cccc(O)c2)CCCCN(C)C1 (stereo not shown) [meptazinol] 89.7

* * *

Assay comment: Pharmacokinetics of meptazinol or meptazinol PABA carbamate, monkeys (Example 29)
Assay type: in vivo, monkey
Measurement conditions: monkey, plasma, iv, 1 mg/kg, meptazinol in plasma, iv meptazinol 1 mg free base equivalents/kg, individual animals, read-out: AUC
Measure: AUC (ng·h/mL)
Give the quantity in ng·h/mL, number only.

Data request, read-out AUC, for CCC1(c2cccc(O)c2)CCCCN(C)C1 (stereo not shown) [meptazinol] 227

* * *

Assay comment: Pharmacokinetics of nalbuphine or nalbuphine PABA carbamate, rats (Example 42)
Type: in vivo, Wistar rats
Measurement conditions: male, Wistar, rat, plasma, po, 3 mg nalbuphine free base equivalents/kg, nalbuphine PABA carbamate in plasma after oral p-aminobenzoic acid carbamate prodrug, 3 mg nalbuphine equivs/kg, single animal, read-out: Cmax
Measure: Cmax (ng/mL)
Give the quantity in ng/mL, number only.

Data request, read-out Cmax, for O=C(Nc1ccc(C(=O)O)cc1)Oc1ccc2c3c1O[C@H]1[C@@H](O)CC[C@@]4(O)[C@@H](C2)N(CC2CCC2)CC[C@]314 [nalbuphine PABA carbamate] 16

* * *

Assay comment: Pharmacokinetics of meptazinol or meptazinol PABA carbamate, rats (Example 30)
Measurement conditions: rat, plasma, iv, 1 mg/kg, AUC, meptazinol in plasma; iv meptazinol 1 mg free base equivalents/kg; rats; individual animals
Measure: AUC (ng·h/mL)
Give the quantity in ng·h/mL, number only.

Data request, read-out AUC, for CCC1(c2cccc(O)c2)CCCCN(C)C1 (stereo not shown) [meptazinol] 161

* * *

Assay comment: Pharmacokinetics of dextrorphan or dextrorphan PABA carbamate, dogs (Example 48)
Type: in vivo, beagle dogs
Measurement conditions: female, beagle, dog, plasma, po, 5 mg free base equivalents/kg, dextrorphan in plasma after oral dextrorphan, 5 mg free base equivalents/kg, female dogs; Mean; read-out: t½ (converted)
Measure: half-life (h)
Give the quantity in h, number only.

Data request, read-out half-life, for `CN1CC[C@@]23CCCC[C@@H]2[C@@H]1Cc1ccc(O)cc13` 3.1

* * *

Assay comment: Pharmacokinetics of meptazinol or meptazinol PABA carbamate, rats (Example 30)
Measurement conditions: rat, plasma, po, 1 mg/kg
Measure: Tmax (min)
Give the quantity in min, number only.

Data request, read-out Tmax, for CCC1(c2cccc(O)c2)CCCCN(C)C1 (stereo not shown) [meptazinol] 30

* * *

Assay comment: Pharmacokinetics of meptazinol from PABA analogue prodrugs, dogs (Example 26)
Assay type: in vivo
Measurement conditions: dog, plasma, po, 1 mg/kg
Measure: Cmax (ng/mL)
Give the quantity in ng/mL, number only.

Data request, read-out Cmax, for CCC1(c2cccc(O)c2)CCCCN(C)C1 (stereo not shown) 4

* * *

Assay comment: Pharmacokinetics of meptazinol or meptazinol PABA carbamate, monkeys (Example 29)
Type: in vivo, monkey
Measurement conditions: monkey, plasma, po, 10 mg meptazinol free base equivalents/kg, meptazinol in plasma, oral meptazinol 10 mg free base equivalents/kg, median value, read-out: Tmax
Measure: Tmax (min)
Give the quantity in min, number only.

Data request, read-out Tmax, for CCC1(c2cccc(O)c2)CCCCN(C)C1 (stereo not shown) 30

* * *

Assay comment: Pharmacokinetics of dextrorphan or dextrorphan PABA carbamate, dogs (Example 48)
Type: in vivo, beagle dogs
Measurement conditions: female, beagle, dog, plasma, po, 5 mg dextrorphan free base equivalents/kg, dextrorphan in plasma after oral dextrorphan, 5 mg free base equivalents/kg, female dogs; Mean; read-out: Cmax
Protocol: Data were normalized to 1 mg/kg
Measure: Cmax
Put your answer as a value accompanied by its unit after it.

Data request, read-out Cmax, for `CN1CC[C@@]23CCCC[C@@H]2[C@@H]1Cc1ccc(O)cc13` 3.3 ng/mL

* * *

Assay comment: in vivo
Measurement conditions: male, rat, plasma, po, 10 mg naloxone free base equivalents/kg, Cmax, naloxone in plasma after oral naloxone, 10 mg free base equivalents/kg, male rats; Mean
Measure: Cmax (ng/mL)
Give the quantity in ng/mL, number only.

Data request, read-out Cmax, for C=CCN1CC[C@]23c4c5ccc(O)c4O[C@H]2C(=O)CC[C@@]3(O)[C@H]1C5 [naloxone] 6.8

* * *

Assay comment: Pharmacokinetics of meptazinol or meptazinol PABA carbamate, rats (Example 30)
Measurement conditions: rat, plasma, iv, 1 mg/kg, t½, meptazinol in plasma; iv meptazinol 1 mg free base equivalents/kg; rats; mean
Measure: half-life (min)
Give the quantity in min, number only.

Data request, read-out half-life, for CCC1(c2cccc(O)c2)CCCCN(C)C1 (stereo not shown) [meptazinol] 42

* * *

Assay comment: Pharmacokinetics of dextrorphan or dextrorphan PABA carbamate, monkeys (Example 47)
Format: in vivo, cynomolgus monkeys
Measurement conditions: male, cynomolgus monkey, plasma, po, 5 mg dextrorphan free base equivalents/kg, dextrorphan in plasma after oral dextrorphan, 5 mg free base equivalents/kg, male cynomolgus monkeys; Mean; read-out: Cmax
Measure: Cmax
Put your answer as a value accompanied by its unit after it.

Data request, read-out Cmax, for CN1CC[C@@]23CCCC[C@@H]2[C@@H]1Cc1ccc(O)cc13 [dextrorphan] 3.9 ng/mL
